B1: Segment polarity protein dishevelled homolog DVL-3, residues 2 to 81; numbered along this chain, Q92997 (parent)
chain: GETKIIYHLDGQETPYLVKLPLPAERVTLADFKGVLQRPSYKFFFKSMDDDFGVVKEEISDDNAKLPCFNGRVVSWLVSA

variants of: B1; assay: abundance fitness (aPCA) (normalised: wild type 0, dead -1); higher = more abundant; growth selection in yeast, the domain comes from the species named; conditions: Homo sapiens
property-name: abundance fitness

sequence-entry	readout-value
GETKIIYHLDGQETPYLVGLPLPAERVTLADFKGVLQRPSYKFFFKSMDDDFGVVKEEISDDNAKLPCFNGRVVSWLVSA [K19G]	-0.635
GETKIIYHLDGQETPYLVKLPLPAERVTLADFKGVLQRESYKFFFKSMDDDFGVVKEEISDDNAKLPCFNGRVVSWLVSA [P39E]	0
GETKIIYHLDGQETPYLVKLPLPAERVTLADFKGVLQRPSYKFFFKSMDDYFGVVKEEISDDNAKLPCFNGRVVSWLVSA [D51Y]	-0.224
GETKIIYHLDGQETPYLVKLPLPAERVTLADFKGVAQRPSYKFFFKSMDDDFGVVKEEISDDNAKLPCFNGRVVSWLVSA [L36A]	-0.785
GETKIIYHLDGQETPYLVKLPLPAERVTLADFKGVLQRPSYKFFFKSMDDDFGVVKEEISDDNAKLRCFNGRVVSWLVSA [P67R]	-0.544
GETKIIYHLDGQETPYLVKLPLPAERVTLADFKGVLQRPSEKFFFKSMDDDFGVVKEEISDDNAKLPCFNGRVVSWLVSA [Y41E]	-0.486
GETKIIYHLDGQETPYLVKLPLPAERVTLADFKGVLQRPSYKFFFKSMDDDFGVVKEEISDDNAKLPCFNGRVVSWFVSA [L77F]	-0.855
GETKIIYHLDGQETPYLVKLPLPAERVTLADFKGVLQRPSYKFFFKSMDDDFGVVKEEISDQNAKLPCFNGRVVSWLVSA [D62Q]	-0.603
GETKIIYHLDGQETPYLVKLPLPAERVTLADFKGVLQRPSYKFFFKSMDDDFGVVREEISDDNAKLPCFNGRVVSWLVSA [K56R]	0.041
GETKIIYHLDGQETPYLVKLPLPAERVTLADFKGVLPRPSYKFFFKSMDDDFGVVKEEISDDNAKLPCFNGRVVSWLVSA [Q37P]	0.092
GETKIIYHLDGQETPYLVKLPLPAERVTLADFKGVLQRPSQKFFFKSMDDDFGVVKEEISDDNAKLPCFNGRVVSWLVSA [Y41Q]	-0.403
GETKIIYHLDGQETPYLVKLDLPAERVTLADFKGVLQRPSYKFFFKSMDDDFGVVKEEISDDNAKLPCFNGRVVSWLVSA [P21D]	-0.253
GETKIIYHLDGQETPYLVKLPLPAERVTLADFKGVLQRPSYDFFFKSMDDDFGVVKEEISDDNAKLPCFNGRVVSWLVSA [K42D]	-0.953
GETKIIYHLDGQETPYLVKLPLPAERVTLADFKGVLQRPSYKFFFKSMDDDFGVVKEEISDWNAKLPCFNGRVVSWLVSA [D62W]	-0.929
GETKIIYHLDGQETPYLVKLPLPAERVTLADAKGVLQRPSYKFFFKSMDDDFGVVKEEISDDNAKLPCFNGRVVSWLVSA [F32A]	-0.622
GETKIIYHLDGQETPYLVKLPLPAERVTLADFKGVLQRPGYKFFFKSMDDDFGVVKEEISDDNAKLPCFNGRVVSWLVSA [S40G]	0.116
GETKIIYHLDGQETPYLVKLPLPAERVTLFDFKGVLQRPSYKFFFKSMDDDFGVVKEEISDDNAKLPCFNGRVVSWLVSA [A30F]	-0.858
GETKIIYHLDGQETPYLVKLPLPAERVTLADQKGVLQRPSYKFFFKSMDDDFGVVKEEISDDNAKLPCFNGRVVSWLVSA [F32Q]	-0.855
GETKIIYHLDGQETPYLVKLPLPAERVTLADFKGVLQRPSYKFFFKSMDDDFGVVKEEISDDNAKLPCFNGRVVSWLVVA [S79V]	-0.682
GETKIIYHLDGQETPYLVKLPTPAERVTLADFKGVLQRPSYKFFFKSMDDDFGVVKEEISDDNAKLPCFNGRVVSWLVSA [L22T]	-0.598
GETKIIYHLDGQETPYLVKLPLPAERVTLADFKGVLQWPSYKFFFKSMDDDFGVVKEEISDDNAKLPCFNGRVVSWLVSA [R38W]	-0.099
GETKIIYHLDGQETPYLVKLPLPAERVTLADFKGVLQRISYKFFFKSMDDDFGVVKEEISDDNAKLPCFNGRVVSWLVSA [P39I]	-0.066
GETKIIYHLDGQETPYLVKLPLPAERVTLADFKGVLQRPSYKFFFKSMDDDFGVVKEEISDDNAKLPCFNGMVVSWLVSA [R72M]	0.2
GETKIIYHLDGQETPYLVKLPLPAERVTLADFKGVLQRPSYKFFFKSMDDDFGVVKEEISDDNAKLPCPNGRVVSWLVSA [F69P]	-0.918
GETKIIYHLDGQETPYLVKLPLPAERVTLADFKGVLQRPSYKFFFKSMDDDFGVVKEEIWDDNAKLPCFNGRVVSWLVSA [S60W]	-0.115
GETKIIYHLDGQETPYLVKLPLDAERVTLADFKGVLQRPSYKFFFKSMDDDFGVVKEEISDDNAKLPCFNGRVVSWLVSA [P23D]	-0.469
GETKIIYHLDGQETPYLVKLPLPAERVTLADFKGVLQRPSYKFFFKSMDFDFGVVKEEISDDNAKLPCFNGRVVSWLVSA [D50F]	-0.645
GETKIIYHLDGQETPYLVKLPLPAERVTLADFKGVLQRPSYKFFFKSMDDDFGVVKEEISDDNRKLPCFNGRVVSWLVSA [A64R]	-0.359
GETKIIYHLDGQETPYLVKLPLPAERVTLADFKGVLQRPSYKFFFKSMDDDFGVVKEEISDDNAKHPCFNGRVVSWLVSA [L66H]	-0.475
GETKIIYHLDGQETPYLVKLPLPAERVTLADFKGVLQRPSYKFFFKSMDDDFGVVKEEIMDDNAKLPCFNGRVVSWLVSA [S60M]	-0.199
GETKIIYHLDGQETPYLVKLPLPAERVTLADFKGVLQRNSYKFFFKSMDDDFGVVKEEISDDNAKLPCFNGRVVSWLVSA [P39N]	0.061
